Assay: Phase 2 clinical trial PK profile of ZP1848 and metabolites in SBS patients
Type: in vivo
Conditions: human, plasma, subcutaneous, Phase 2 study, SBS patients; read-out: terminal plasma half-life
metric name: half-life

H-HGEGTFSSELATILDALAARDFIAWLIATKITDKKKKKK-NH2 [ZP1848]    5 to 17 days

Now look at this entry.
Lookup: Quick check: half-life of H-HGEGTFSSELATILDALAARDFIAWLIATKITDK-OH [ZP2469] ?
Found: 5 to 17 days

* * *

Assay: Phase 2 clinical trial PK profile of ZP1848 and metabolites in SBS patients
Assay type: in vivo
Conditions: human, plasma, sc, plasma terminal elimination half-life, per subject, after SC once-daily ZP1848; read-out: Half-life (converted)
metric name: half-life
Please format your answer as a value with the unit trailing.

Lookup: What does the data say about its half-life? Entry: H-HGEGTFSSELATILDALAARDFIAWLIATKITDKK-OH [ZP2711]
Found: 14 days
